Cited source for all entries: paper PMC7589200

Biological target: recombinant human XT-I (Homo sapiens)
Sequence (Q86Y38 252-959 limits assumed): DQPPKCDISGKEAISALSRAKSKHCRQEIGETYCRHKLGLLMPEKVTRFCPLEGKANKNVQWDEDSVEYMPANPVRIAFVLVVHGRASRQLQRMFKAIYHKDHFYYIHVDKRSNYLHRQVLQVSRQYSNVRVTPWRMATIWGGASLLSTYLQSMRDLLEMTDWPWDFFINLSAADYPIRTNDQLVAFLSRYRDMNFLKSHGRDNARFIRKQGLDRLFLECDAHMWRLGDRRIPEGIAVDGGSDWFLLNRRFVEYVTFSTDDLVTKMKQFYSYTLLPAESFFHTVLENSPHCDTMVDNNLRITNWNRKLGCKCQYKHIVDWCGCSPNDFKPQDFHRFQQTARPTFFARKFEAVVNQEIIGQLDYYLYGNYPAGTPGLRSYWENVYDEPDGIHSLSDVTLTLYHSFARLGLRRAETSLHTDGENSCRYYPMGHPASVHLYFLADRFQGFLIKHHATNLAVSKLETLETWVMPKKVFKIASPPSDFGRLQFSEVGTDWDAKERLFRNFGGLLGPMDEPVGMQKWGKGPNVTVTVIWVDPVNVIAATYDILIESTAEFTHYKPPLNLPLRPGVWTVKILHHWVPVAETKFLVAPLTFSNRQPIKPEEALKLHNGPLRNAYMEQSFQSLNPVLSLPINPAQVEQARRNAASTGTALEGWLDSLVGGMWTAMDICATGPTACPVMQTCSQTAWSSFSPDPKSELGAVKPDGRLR
Assay: NP library inhibitor screening, UPLC/ESI-MS/MS XT-I assay
Format: biochemical
Details: Table S1; 50 μM inhibitor; relative to negative control containing DMSO; technical duplicates
measured-attribute: remaining activity at 50 µM (%)

C=CC1=C(C(=O)O)N2C(=O)[C@@H](NC(=O)/C(=N\O)c3csc(N)n3)[C@H]2SC1 | 72
Cn1c(=O)c2[nH]cnc2n(C)c1=O | 122
CO[C@H]1C[C@@H]2CC[C@@H](C)[C@@](O)(O2)C(=O)C(=O)N2CCCC[C@H]2C(=O)O[C@H]([C@H](C)C[C@@H]2CC[C@@H](O)[C@H](OC)C2)CC(=O)[C@H](C)/C=C(\C)[C@@H](O)[C@@H](OC)C(=O)[C@H](C)C[C@H](C)/C=C/C=C/C=C/1C [Compound 1, Rapamycin (Sirolimus)] | 70
C[C@H]1COc2c(N3CCN(C)CC3)c(F)cc3c(=O)c(C(=O)O)cn1c23 | 111
Cc1nnc(NS(=O)(=O)c2ccc(N)cc2)s1 | 111
CC1(C)[C@H](C(=O)O)N2C(=O)C[C@H]2S1(=O)=O | 138
OC(Cn1cncn1)(Cn1cncn1)c1ccc(F)cc1F | 75
C[C@]12CC[C@@H]3c4ccc(O)cc4CC[C@H]3[C@@H]1CC[C@@H]2O | 128
COC(=O)[C@H]1[C@H]2C[C@@H]3c4[nH]c5cc(OC)ccc5c4CCN3C[C@H]2C[C@@H](OC(=O)c2cc(OC)c(OC)c(OC)c2)[C@@H]1OC | 89
Clc1ccccc1C(c1ccccc1)(c1ccccc1)n1ccnc1 | 101
